Assay: Clearance in monkey liver hepatocytes measured per million cells
Format: ADME, Macaca mulatta, Hepatocyte
Conditions: rhesus monkey, read-out: CLH
readout label: hepatocyte CLint (µL/min/1e6 cells)
Give the quantity in µL/min/1e6 cells, number only.

Lab note: measured hepatocyte CLint of CCc1ccccc1NC(=O)N1C[C@@H](C)Oc2cc(-c3ccc([C@H]4CC[C@H](CC(=O)O)CC4)cc3)ccc21 was 14

----------
Experiment: AUC in monkey at 3 mg/kg, po
Format: ADME, organism-based, Macaca mulatta
Set-up: dose 3 mg/kg, route oral
Settings: rhesus monkey, plasma
readout label: AUC
Please report the result as a number followed by the unit.

The recorded AUC for entry CCc1ccccc1NC(=O)N1C[C@@H](C)Oc2cc(-c3ccc([C@H]4CC[C@H](CC(=O)O)CC4)cc3)ccc21 equals 64 µM·h

----------
Assay: Clearance in human liver hepatocytes measured per million cells
Format: ADME, cell-based, Hepatocyte
Settings: read-out: CLH
readout label: hepatocyte CLint (µL/min/1e6 cells)
Expressed in µL/min/1e6 cells, but write only the number.

Input O=C(O)C[C@H]1CC[C@H](c2ccc(-c3ccc4c(ccn4C(=O)Nc4ccccc4)c3)cc2)CC1 . Output hepatocyte CLint: 7.6

----------
Test: Plasma protein binding in human
Type: ADME, cell-free
Conditions: read-out: PPB
readout label: fraction unbound

Quick note, fraction unbound for CCc1ccccc1NC(=O)N1C[C@@H](C)Oc2cc(-c3ccc([C@H]4CC[C@H](CC(=O)O)CC4)cc3)ccc21 landed at < 0.005

----------
Assay: Oral bioavailability in mouse at 1 mg/kg
Type: ADME, organism-based
Settings: in vivo
readout label: bioavailability (%)
// note: answer is a bare numeric in %

// bioavailability value for CCc1ccccc1NC(=O)N1C[C@@H](C)Oc2cc(-c3ccc([C@H]4CC[C@H](CC(=O)O)CC4)cc3)ccc21 : 89

----------
Assay: Solubility in plasma (unknown origin) at pH 7
Format: ADME, cell-free
readout label: solubility (µM)
Numbers only here, please. The scale is µM.

CCc1ccccc1NC(=O)N1C[C@@H](C)Oc2cc(-c3ccc([C@H]4CC[C@H](CC(=O)O)CC4)cc3)ccc21	50

The molecule identified as CCCCCCCNC(=O)N1CCOc2cc(-c3ccc([C@H]4CC[C@H](CC(=O)O)CC4)cc3)ccc21 registered its solubility at 5

----------
Test: Cmax in mouse at 1 mg/kg, po
Assay type: ADME, organism-based
Set-up: dose 1 mg/kg, route oral
Conditions: in vivo
readout label: Cmax (nM)
Output spec: scalar in nM, unitless text.

The compound CCc1ccccc1NC(=O)N1C[C@@H](C)Oc2cc(-c3ccc([C@H]4CC[C@H](CC(=O)O)CC4)cc3)ccc21 showed Cmax equal to 600

----------
Test: Clearance in dog liver hepatocytes measured per million cells
Assay type: ADME, Canis lupus familiaris, Hepatocyte
Settings: read-out: CLH
readout label: hepatocyte CLint (µL/min/1e6 cells)
Answer format: numeric, µL/min/1e6 cells implied, no suffix.

Lab note: measured hepatocyte CLint of CCc1ccccc1NC(=O)N1C[C@@H](C)Oc2cc(-c3ccc([C@H]4CC[C@H](CC(=O)O)CC4)cc3)ccc21 was 16

----------
Sequence of the target: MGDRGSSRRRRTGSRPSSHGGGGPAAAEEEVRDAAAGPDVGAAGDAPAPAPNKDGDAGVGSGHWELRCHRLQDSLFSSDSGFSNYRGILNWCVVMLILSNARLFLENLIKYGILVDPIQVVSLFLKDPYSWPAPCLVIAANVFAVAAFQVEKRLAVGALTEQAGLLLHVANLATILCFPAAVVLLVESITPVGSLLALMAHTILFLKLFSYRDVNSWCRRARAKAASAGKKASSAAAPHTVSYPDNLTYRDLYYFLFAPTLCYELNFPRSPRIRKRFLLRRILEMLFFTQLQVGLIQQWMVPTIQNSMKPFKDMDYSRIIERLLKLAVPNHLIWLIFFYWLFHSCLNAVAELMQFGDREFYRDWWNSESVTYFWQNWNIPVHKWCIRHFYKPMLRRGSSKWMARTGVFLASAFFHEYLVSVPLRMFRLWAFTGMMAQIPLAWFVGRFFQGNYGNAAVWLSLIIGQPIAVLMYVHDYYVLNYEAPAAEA
Overview of recorded IC50 for various compounds

O=C(O)C[C@H]1CC[C@H](c2ccc(-c3ccc4c(c3)OCCN4S(=O)(=O)Cc3ccccc3)cc2)CC1	> 10 µM

Then there is this compound:
Quick note, IC50 for CCc1ccccc1NC(=O)N1CC(C)Oc2cc(-c3ccc([C@H]4CC[C@H](CC(=O)O)CC4)cc3)ccc21 (some centres not stated) landed at 0.11 µM

----------
System: Hepatocyte
Experiment: Clearance in human liver hepatocytes measured per million cells
Format: ADME, cell-based
readout label: CLH (µL/min/1e6 cells)
Express your answer in µL/min/1e6 cells, writing the number without its unit.

For this compound ( CCc1ccccc1NC(=O)N1C[C@@H](C)Oc2cc(-c3ccc([C@H]4CC[C@H](CC(=O)O)CC4)cc3)ccc21 ), measured CLH is 14

----------
Assay: Inhibition of serotonin receptor (unknown origin)
Design: species or system Homo sapiens
readout label: IC50

The recorded IC50 for entry CCc1ccccc1NC(=O)N1C[C@@H](C)Oc2cc(-c3ccc([C@H]4CC[C@H](CC(=O)O)CC4)cc3)ccc21 equals > 10 µM

----------
Target: Caspase-9 (Homo sapiens)
Sequence (P55211 1-315 limits assumed): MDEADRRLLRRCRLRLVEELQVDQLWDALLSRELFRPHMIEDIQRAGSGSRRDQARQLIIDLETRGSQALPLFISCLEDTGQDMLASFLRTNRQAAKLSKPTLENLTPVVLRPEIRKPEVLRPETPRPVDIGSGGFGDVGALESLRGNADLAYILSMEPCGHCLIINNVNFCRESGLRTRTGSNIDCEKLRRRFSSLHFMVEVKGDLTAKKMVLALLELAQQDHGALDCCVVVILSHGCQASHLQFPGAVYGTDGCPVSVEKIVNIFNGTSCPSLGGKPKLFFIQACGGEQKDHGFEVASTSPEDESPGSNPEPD
Sequence (P55211 331-416 limits assumed): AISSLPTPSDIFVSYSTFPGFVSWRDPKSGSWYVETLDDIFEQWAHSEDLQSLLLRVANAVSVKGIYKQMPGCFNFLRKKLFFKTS
readout label: IC50 (µM)
Your answer should be a plain number; it is taken to be in µM.

Record CCc1ccccc1NC(=O)N1C[C@@H](C)Oc2cc(-c3ccc([C@H]4CC[C@H](CC(=O)O)CC4)cc3)ccc21 ; system Caspase-9 (Homo sapiens); IC50 = 5

----------
Test: Half life in mouse at 1 mg/kg, po
Type: ADME, organism-based
Design: dose 1 mg/kg, route oral
Details: in vivo
readout label: half-life

Notebook: CCc1ccccc1NC(=O)N1C[C@@H](C)Oc2cc(-c3ccc([C@H]4CC[C@H](CC(=O)O)CC4)cc3)ccc21 , half-life read as 6.2 h

----------
Assay: Cmax in rat at 10 mg/kg, po
Type: ADME, organism-based
Set-up: dose 10 mg/kg, route oral
Conditions: in vivo
readout label: Cmax (µM)
Return type: number; implicit unit µM.

Looking up CCc1ccccc1NC(=O)N1C[C@@H](C)Oc2cc(-c3ccc([C@H]4CC[C@H](CC(=O)O)CC4)cc3)ccc21 , I found its Cmax recorded as 9.1

----------
// values below are reported Papp
Experiment: Permeability in human Caco2 cells
Type: ADME, cell-based
Conditions: Caco-2, read-out: permeability
Numeric only. Scale: ×10⁻⁶ cm/s

O=C(O)C[C@H]1CC[C@H](c2ccc(-c3ccc4c(ccn4C(=O)Nc4ccccc4)c3)cc2)CC1	17
CCCCCCCNC(=O)N1CCOc2cc(-c3ccc([C@H]4CC[C@H](CC(=O)O)CC4)cc3)ccc21	3.5
CCc1ccccc1NC(=O)N1C[C@@H](C)Oc2cc(-c3ccc([C@H]4CC[C@H](CC(=O)O)CC4)cc3)ccc21	20.1

Form field Papp, entry O=C(O)C[C@H]1CC[C@H](c2ccc(-c3ccc4c(c3)OCCN4C(=O)Nc3ccc(F)cc3C(F)(F)F)cc2)CC1 : 23.9

----------
Test: Cmax in rat
Assay type: ADME, organism-based
Settings: in vivo
readout label: Cmax (nM)
# value in nM; strip the unit string

Record summary for CCCCCCCNC(=O)N1CCOc2cc(-c3ccc([C@H]4CC[C@H](CC(=O)O)CC4)cc3)ccc21 : reported Cmax = 65

----------
Experiment: AUC in dog at 2 mg/kg, po
Format: ADME, organism-based, Canis lupus familiaris
Set-up: dose 2 mg/kg, route oral
Settings: plasma
readout label: AUC (µM·h)
Numeric answer only, unit µM·h assumed.

# AUC (compound: CCc1ccccc1NC(=O)N1C[C@@H](C)Oc2cc(-c3ccc([C@H]4CC[C@H](CC(=O)O)CC4)cc3)ccc21 ) is 23

----------
Assay: AUC in rat at 10 mg/kg, po
Assay type: ADME, organism-based
Design: dose 10 mg/kg, route oral
Details: plasma
readout label: AUC (µM·h)
Provide only the numeric value, understood in µM·h.

The value of AUC measured for the compound CCc1ccccc1NC(=O)N1C[C@@H](C)Oc2cc(-c3ccc([C@H]4CC[C@H](CC(=O)O)CC4)cc3)ccc21 turned out to be 41

----------
Test: Cmax in monkey at 3 mg/kg, po
Type: ADME, organism-based, Macaca mulatta
Parameters: dose 3 mg/kg, route oral
Conditions: rhesus monkey, in vivo
readout label: Cmax (µM)
Number in µM, nothing else.

Record CCc1ccccc1NC(=O)N1C[C@@H](C)Oc2cc(-c3ccc([C@H]4CC[C@H](CC(=O)O)CC4)cc3)ccc21 . Reported Cmax: 5.7

----------
Test: Clearance in mouse liver hepatocytes measured per million cells
Format: ADME, Hepatocyte
Details: read-out: CLH
readout label: hepatocyte CLint
Please give the number followed by its unit.

The measured hepatocyte CLint associated with CCc1ccccc1NC(=O)N1C[C@@H](C)Oc2cc(-c3ccc([C@H]4CC[C@H](CC(=O)O)CC4)cc3)ccc21 reads 6.2 µL/min/1e6 cells
